Biological target: T1, Mcl-1, Q07820
T1 chain: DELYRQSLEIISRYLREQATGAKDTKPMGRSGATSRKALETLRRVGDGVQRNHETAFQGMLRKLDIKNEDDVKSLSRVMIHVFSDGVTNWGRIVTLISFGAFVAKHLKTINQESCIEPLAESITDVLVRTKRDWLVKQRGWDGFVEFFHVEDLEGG
Experiment: peptide SPOT array, c-Myc-tagged receptor at 1 uM or 100 nM, anti-c-Myc-Cy3
observation.type: SPOT signal as a fraction of Bim BH3's signal on the same receptor and array
Lab note: write the figure by itself, no unit.

Request: Quick check: SPOT signal as a fraction of Bim BH3's signal on the same receptor and array of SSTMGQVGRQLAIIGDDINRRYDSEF [BAK1] ?
Response: 0.84

Request: Quick check: SPOT signal as a fraction of Bim BH3's signal on the same receptor and array of DVTHSKAVEALKEAGSIVRLYVKRRK [DLG1] ?
Response: 0.13

Request: Quick check: SPOT signal as a fraction of Bim BH3's signal on the same receptor and array of GLFSATSGVDLKYVADTFGQEVRPVS [DDX7] ?
Response: 0.02

Request: Quick check: SPOT signal as a fraction of Bim BH3's signal on the same receptor and array of AIILCNVCGNDCTDCDRFLHLHRRTK [MYCBP2] ?
Response: 0.16

Request: Quick check: SPOT signal as a fraction of Bim BH3's signal on the same receptor and array of TSRINEVQVNLSLLGDDLLLPAQSTL [SPHKAP] ?
Response: 0.04

Request: Quick check: SPOT signal as a fraction of Bim BH3's signal on the same receptor and array of SRTLTLIAKVIQNLANFAKFGNKEEY [RASAL2] ?
Response: 0.08

Request: Quick check: SPOT signal as a fraction of Bim BH3's signal on the same receptor and array of ERLKGQLCDVLLIVLDQKFRAHKNVL [ZNF295] ?
Response: 0.19
